These entries and their values trace back to the antibiotic and cytotoxicity screens of Wong et al. (2023).

system: HepG2; test: cytotoxicity call (relative viability < 0.9); conditions: 10 µM
Hit rate of the full screen: of about 39,000 compounds, about 3,300 (8.5%) were called active. Many of the other results were omitted from the sample, so actives are more common in it than they were.
parameter: cytotoxicity call

Would you please look over these solved cases?
smiles record | cytotoxicity call
O=C(C[C@@H]1CC[C@H]2[C@@H](COC[C@H](O)CN2CC2CCOCC2)O1)N1CCOCC1 | inactive
C[C@@H]1CCCCO[C@@H](CN(C)C(=O)NC2CCCCC2)[C@@H](C)CN([C@@H](C)CO)C(=O)c2cc(NC(=O)Nc3ccc(F)cc3)ccc2O1 | inactive
COc1ccc(NC(=O)Nc2ccc3c(c2)C(=O)N([C@H](C)CO)C[C@H](C)[C@@H](CN(C)Cc2ccc(C(=O)O)cc2)OCCCC[C@H](C)O3)cc1 | inactive
COC1=C(N)C(=O)c2nc(-c3nc(C(=O)O)c(C)c(-c4ccc(OC)c(OC)c4O)c3N)ccc2C1=O | active
CC(C)N1C(=O)C[C@@](C(=O)NCCN2CCOCC2)(c2ccc([N+](=O)[O-])cc2)[C@H]1c1ccc(CO)cc1 | inactive

Problem: What does the data say about its cytotoxicity call? Entry: CC(=O)N1CC(=O)N(c2cnn(C)c2)C[C@]12CCN(C(=O)c1cnc(C)cn1)C2
Solution: inactive

Problem: What does the data say about its cytotoxicity call? Entry: C[C@@H]1CCCCO[C@H](CN(C)Cc2ccc(C(=O)O)cc2)[C@H](C)CN([C@@H](C)CO)C(=O)c2cc(NC(=O)NC3CCCCC3)ccc2O1
Solution: inactive
